Data origin: PubChem BioAssay AID2060908

Measured viability, T/C, listed per entry for reference.
Test system: 186277-243-T-J2-PDC complex spheroids, viability;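 note: spheroids exposed to compounds for 7 days before viability read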
Test: Anticancer human tumor 186277-243-T-J2-PDC patient-derived colon adenocarcinoma cell line growth inhibition [RAS]
Settings: second compound 0.00316 µM; first compound 0.316 µM; active compounds read low
Only the number, expressed in %, is required.

What value of viability, T/C has been reported for the following molecule? O=C(c1ccc(F)c(F)c1Nc1ccc(I)cc1F)N1CC(O)([C@@H]2CCCCN2)C1 + C=CC(=O)N1CCN(c2nc(OCC3CCCN3C)nc3c(F)c(-c4nc(N)cc(C)c4C(F)(F)F)c(Cl)cc23)C(C)C1
12

What value of viability, T/C has been reported for the following molecule? Nc1ccn(C2OC(CO)C(O)C2(F)F)c(=O)n1 (stereo not drawn) + C=CC(=O)N1CCN(c2nc(OCC3CCCN3C)nc3c(F)c(-c4nc(N)cc(C)c4C(F)(F)F)c(Cl)cc23)C(C)C1
11.1

What value of viability, T/C has been reported for the following molecule? CC(C)NCC(C(=O)N1CCN(c2ncnc3c2C(C)CC3O)CC1)c1ccc(Cl)cc1 (stereo not drawn) + C=CC(=O)N1CCN(c2nc(OCC3CCCN3C)nc3c(F)c(-c4nc(N)cc(C)c4C(F)(F)F)c(Cl)cc23)C(C)C1
113
